Each entry below carries its recorded MIC50.
System: Enterobacter cloacae
Test: MIC against clinically isolated aerobic Gram-negative strains
Format: cell-based
Settings: 29 strains
Express the result in µg/mL but write the number alone.

Would you please look over these solved cases?
QUERY SMILES	TEST TARGET	RECORDED RESULT
C[C@@H](O)[C@H]1C(=O)N2C(C(=O)O)=C(S[C@@H]3CN[C@H](/C=C/c4cc(C(=O)O)no4)C3)[C@H](C)[C@H]12	Enterobacter cloacae	0.12
C[C@@H](O)[C@H]1C(=O)N2C(C(=O)O)=C(S[C@@H]3CN[C@H](C(=O)N(C)C)C3)[C@H](C)[C@H]12	Enterobacter cloacae	0.03
C[C@@H](O)[C@H]1C(=O)N2C(C(=O)O)=C(SCCN=CN)C[C@H]12	Enterobacter cloacae	0.25

Below: the item to evaluate.
Request: I'd like to know its MIC50. The compound in question is C[C@@H](O)[C@H]1C(=O)N2C(C(=O)O)=C(S[C@@H]3CN[C@H](C(=O)Nc4cccc(C(=O)O)c4)C3)[C@H](C)[C@H]12
Response: 0.12

====

Test system: Staphylococcus coagulase
Assay: MIC against clinically isolated aerobic Gram-positive strains
Assay type: cell-based
Settings: Staphylococcus
READOUT TYPE: MIC90 (µg/mL)
Number in µg/mL, nothing else.

Solved cases (3 shown):
COMPOUND	TEST TARGET	UNIT INFO	MIC90
C[C@@H](O)[C@H]1C(=O)N2C(C(=O)O)=C(S[C@@H]3CN[C@H](/C=C/c4cc(C(=O)O)no4)C3)[C@H](C)[C@H]12 [Example]	Staphylococcus coagulase	µg/mL	0.25
C[C@@H](O)[C@H]1C(=O)N2C(C(=O)O)=C(SCCN=CN)C[C@H]12 [IPM, Imipenem]	Staphylococcus coagulase	µg/mL	0.015
C[C@@H](O)[C@H]1C(=O)N2C(C(=O)O)=C(S[C@@H]3CN[C@H](C(=O)Nc4cccc(C(=O)O)c4)C3)[C@H](C)[C@H]12 [EPM, ertapenem]	Staphylococcus coagulase	µg/mL	0.5

// switching to the query compound
Request: State the recorded MIC90 for this entry: C[C@@H](O)[C@H]1C(=O)N2C(C(=O)O)=C(S[C@@H]3CN[C@H](C(=O)N(C)C)C3)[C@H](C)[C@H]12 [MPM, meropenem]
Response: 0.12

====

Test system: Bacteroides thetaiotaomicron
Assay: MIC against clinically isolated anaerobic Gram-negative strains
Assay type: cell-based
Settings: clinically isolated anaerobic Bacteroides thetaiotaomicron, 15 strains
READOUT TYPE: MIC Range

Past entries and their recorded results:
QUERY SMILES	TEST TARGET	MIC Range
C[C@@H](O)[C@H]1C(=O)N2C(C(=O)O)=C(S[C@@H]3CN[C@H](/C=C/c4cc(C(=O)O)no4)C3)[C@H](C)[C@H]12	Bacteroides thetaiotaomicron	0.5 to 8 µg/mL
C[C@@H](O)[C@H]1C(=O)N2C(C(=O)O)=C(S[C@@H]3CN[C@H](C(=O)Nc4cccc(C(=O)O)c4)C3)[C@H](C)[C@H]12	Bacteroides thetaiotaomicron	0.25 to 8 µg/mL
C[C@@H](O)[C@H]1C(=O)N2C(C(=O)O)=C(SCCN=CN)C[C@H]12	Bacteroides thetaiotaomicron	0.12 to 16 µg/mL

Attention now shifts to the item below.
Request: Which MIC Range reading was recorded for the compound C[C@@H](O)[C@H]1C(=O)N2C(C(=O)O)=C(S[C@@H]3CN[C@H](C(=O)N(C)C)C3)[C@H](C)[C@H]12 ?
Response: 0.25 to 2 µg/mL
